assay: BBB-specific parallel artificial membrane permeability assay (PAMPA-BBB); assay type: in vitro ADME, porcine; settings: pH 7.4, 37° C., 4 h
Overview of reported MR (membrane retention factor) across a group of molecules:
Reply with the value as a number alone.

Sample records with MR (membrane retention factor):
molecule="CN1CCN(C2=Nc3ccccc3Oc3ccc(Cl)cc32)CC1 [Loxapine, reference compound]" measured_metric="MR (membrane retention factor)" numeric_result=0.33
molecule=O=C(O)COCCN1CCCN(C2=Nc3ccccc3Oc3ccc(C(F)(F)F)cc32)CC1 measured_metric="MR (membrane retention factor)" numeric_result=−0.10
molecule=CN1CCN(C2=Nc3cc(F)ccc3Oc3ccc(C(F)(F)F)cc32)CC1 measured_metric="MR (membrane retention factor)" numeric_result=0.74

Inquiry: What does the data say about its MR (membrane retention factor)? Entry: `CN1CCN(C2=Nc3ccccc3Oc3ccc(C(F)(F)F)cc32)CC1`
Reply text: 0.64

Inquiry: Can you handle `OCCOCCN1CCN(C2=Nc3ccccc3Sc3ccc(Cl)cc32)CC1` next?
Reply text: 0.19

Inquiry: Moving on to the next molecule: `CN1CCCN(C2=Nc3ccccc3Oc3ccc(C(F)(F)F)cc32)CC1`
Reply text: 0.5

Inquiry: Try the molecule `O=c1nc(CN2CCN(C3=Nc4ccccc4Oc4ccc(Cl)cc43)CC2)[nH][nH]1`
Reply text: 0.02

Inquiry: Param item: `OCCN1CCN(C2=Nc3ccccc3Oc3ccc(Cl)cc32)CC1`
Reply text: 0.03

----------
experiment: In vivo pharmacokinetic study, plasma and brain levels by LC-MS; parameters: species or system mice; details: male, C57BL/6, mouse, in vivo, ip, 1 mg/kg
Quick list: AUC(0-inf) per entry.
The reply should read as a number followed by its unit.

Example entries begin here.
compound_smiles=CN1CCCN(C2=Nc3ccccc3Oc3ccc(C(F)(F)F)cc32)CC1 result="58.3 ng·h/mL"
compound_smiles=OCCOCCN1CCN(C2=Nc3ccccc3Sc3ccc(Cl)cc32)CC1 result="71.9 ng·h/mL"
compound_smiles=OCCN1CCN(C2=Nc3ccccc3Oc3ccc(Cl)cc32)CC1 result="50.2 ng·h/mL"
compound_smiles=O=C(O)COCCN1CCN(C2=Nc3ccccc3Oc3ccc(Cl)cc32)CC1 result="467 ng·h/mL"

Please turn your attention to the following entry.
Inquiry: Can you share its AUC(0-inf)? I mean this molecule: `CN1CCN(C2=Nc3cc(F)ccc3Oc3ccc(C(F)(F)F)cc32)CC1`
Reply text: 122 ng·h/mL

----------
Parameter: AUC(0-inf). Scope: all listed entries.
experiment: In vivo pharmacokinetic study, plasma and brain levels by LC-MS; set-up: species or system mice; conditions: male, C57BL/6, mouse, in vivo, ip, 1 mg/kg
Response body: numeric value in ng·h/mL, unit text excluded.

Completed entries (count: 2):
compound_smiles=O=C(O)COCCN1CCN(C2=Nc3ccccc3Oc3ccc(C(F)(F)F)cc32)CC1 measured_metric=AUC(0-inf) numeric_result=851
compound_smiles=CN1CCN(C2=Nc3ccccc3Oc3ccc(C(F)(F)F)cc32)CC1 measured_metric=AUC(0-inf) numeric_result=84

--- query ---
Inquiry: Data request, read-out AUC(0-inf), for `O=C(O)COCCN1CCCN(C2=Nc3ccccc3Oc3ccc(C(F)(F)F)cc32)CC1`
Reply text: 123

----------
assay: In vivo pharmacokinetic study, plasma and brain levels by LC-MS; set-up: species or system mice; conditions: male, C57BL/6, mouse, in vivo, ip, 1 mg/kg
measured.metric: Kp

Inquiry: For the molecule O=c1nc(CN2CCN(C3=Nc4ccccc4Oc4ccc(Cl)cc43)CC2)[nH][nH]1 [Compound 10] , what Kp is on record?
Reply text: ≤ 0.3
